- TEST_SUMMARY: in vivo
- RUN_PARAMETERS: male, Wistar:Han, rat, inhaled or intranasal, 2.1 umol/kg
ASSAY_READOUT: Tmax

Q: Quick one: Tmax for CCOc1cnccc1-c1nc2n(C3CCCC3)[nH]c(CC)c-2c(=O)n1 [Compound C] ?
Ans: 2 to 20 min
